B1: Hairpin Ribozyme (parent)
chain: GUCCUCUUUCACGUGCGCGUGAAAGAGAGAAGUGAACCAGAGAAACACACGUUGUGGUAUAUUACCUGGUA

Variants of: B1
PROTOCOL TEXT: self-cleavage, relative activity (ratio to wild type); higher = more cleavage; co-transcriptional
This listing pairs variants with measured self-cleavage.
# respond with the number and nothing more

Look over these answered cases.
G40A G57A
0.0955
A26U U70C
0.721

Item A31C C65A : provide self-cleavage
0.0267

Item C10A G42U : provide self-cleavage
0.268
